Provide the recorded HT-1080 Exo PAI-1 (IC50 in nM) rat for the entries that follow.
Target Under Test: T1, rat PAI-1 (rat, UniProt P20961 24-402)
T1 sequence: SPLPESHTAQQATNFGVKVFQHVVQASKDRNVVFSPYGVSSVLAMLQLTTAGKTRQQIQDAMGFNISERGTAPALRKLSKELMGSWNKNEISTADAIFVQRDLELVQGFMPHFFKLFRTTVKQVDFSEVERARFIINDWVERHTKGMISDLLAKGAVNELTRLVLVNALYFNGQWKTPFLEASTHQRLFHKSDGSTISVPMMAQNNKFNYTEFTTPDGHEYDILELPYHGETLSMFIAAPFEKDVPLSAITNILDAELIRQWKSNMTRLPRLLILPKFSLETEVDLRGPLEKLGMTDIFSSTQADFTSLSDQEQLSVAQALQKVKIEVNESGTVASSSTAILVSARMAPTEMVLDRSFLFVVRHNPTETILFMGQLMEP
Assay Comment: cell-based or functional assay
Answers are plain numbers, in nM.

Some entries whose results are on file:
binder="Antibody 16 scFv (scFv) QVQLVQSGAEVKKPGSSVKVSCKASGGTFSSYAISWVRQAPGQGLEWMGGIIPTFGTANYAQKFQGRVTITADESTSTAYMELSSLRSEDTAVYYCAREKRQWLEGHFDYWGRGTLVTVSSDIQMTQSPSTLSASVGDRVTITCRASESIYHSLAWYQQKPGKAPKLLIYKASSLASGVPSRFSGSRSGTEFTLTISSLQPDDFATYYCQQYSNYPLTFGGGTKVEIK" readout_kind="HT-1080 Exo PAI-1 (IC50 in nM) rat" result_units=nM quantitative_readout=52.6
binder="Antibody 09 scFv (scFv) QVQLQQSGAEVKKPGSSVKVSCKASGGTFSSYAISWVRQAPGQGLEWMGGIIPAFDTANYAQKFQGRVTITADESTSTAYMELSGLRSEDTAVYYCAREKRQWLEGHFDYWGRGTPVTVSSDIQMTQSPSFLSASIGDRVTITCQASEGIYHNLAWYQQKPGKAPKLLIYRASSLASGAPSRFSGSGSGTDFTLTISSLQPDDFATYYCQQYSNYPLTFGGGTKLEIK" readout_kind="HT-1080 Exo PAI-1 (IC50 in nM) rat" result_units=nM quantitative_readout=52.7

Reported HT-1080 Exo PAI-1 (IC50 in nM) rat for Antibody 20 scFv (scFv) QVQLQQSGAEVKKPGSSVKVSCKASGGTFSSYAISWVRQAPGQGLEWMGGIIPTFGTANYAQKFQGRVTITADESTSTAYMELSSLRSEDTAVYYCAREKRQWLEGHFDYWGRGTLVTVSSDIQMTQSPSTLSASVGDRVTITCRASEGIYHELAWYQQKPGKAPKLLIYRASSLASGVPSRFSGSRSGTEFTLTISSLQPDDFATYYCQQYSDYPLTFGGGTKVEIK was 42.4

Every entry's value here was drawn from patent US20130266566A1.
